experiment: Thermodynamic solubility of the compound in simulated gastric fluid at pH 1.6 incubated under stirred condition for 3 days; type: physicochemical; conditions: read-out: Therm_solubility
Label scheme for solubility thermodynamic at 72 h: lower than 20 µM is Criterion not met, 20 µM and above is Criterion met.

N#Cc1cccc(Cl)c1-c1ccc2[nH]c(=O)[nH]c2c1	Criterion not met
Cc1cc(-c2c(Cl)cccc2OC(F)(F)F)cc2c1NC(=O)C2	Criterion not met

Q) I'd appreciate it if you could say whether N#CCc1cccc(Cl)c1-c1ccc2[nH]c(=O)[nH]c2c1 has solubility thermodynamic at 72 h at least equal to 20 µM.
A) Criterion met

Q) I'd appreciate it if you could say whether COc1cccc(Cl)c1-c1ccc2[nH]c(=O)[nH]c2c1 has solubility thermodynamic at 72 h at least equal to 20 µM.
A) Criterion not met

###

test: Apparent permeability across basolateral to apical side in MDCK-MDR1 cells at 5 uM measured after 60 mins by LC-MS/MS analysis; type: ADME, cell-based, Canis lupus familiaris; settings: dog
reported_endpoint: Papp B→A at 1 h, 5 µM (×10⁻⁶ cm/s)
Numbers only; they are read as ×10⁻⁶ cm/s.

A selection of reference data follows.
N#CCc1cccc(Cl)c1-c1ccc2[nH]c(=O)[nH]c2c1	70
O=c1[nH]c2ccc(-c3c(Cl)cccc3C3CC3)cc2[nH]1	18
O=c1[nH]c2ccc(-c3c(Cl)cccc3Cl)cc2[nH]1	49

Q) So what does the record say about Papp B→A at 1 h, 5 µM for Cc1cc(-c2c(Cl)cncc2OC(F)(F)F)cc2c1NC(=O)C2 ?
A) 51

Q) So what does the record say about Papp B→A at 1 h, 5 µM for O=c1[nH]c2ccc(-c3c(Cl)cccc3OC(F)(F)F)cc2[nH]1 ?
A) 24

Q) So what does the record say about Papp B→A at 1 h, 5 µM for N#Cc1cccc(Cl)c1-c1ccc2[nH]c(=O)[nH]c2c1 ?
A) 70

###

experiment: Hepatic extraction ratio in human liver microsomes at 1 uM measured after 60 mins in presence of NADPH by LC-MS/MS analysis; type: ADME, microsome; conditions: read-out: ERH
Below, each entry is listed with its recorded hepatic extraction ratio at 1 h, 1 µM.

A selection of reference data follows.
O=c1[nH]c2ccc(-c3c(Cl)cccc3C3CC3)cc2[nH]1	< 0.3
Cc1cc(-c2c(Cl)cncc2OC(F)(F)F)cc2c1NC(=O)C2	< 0.3
Cc1cccc(Cl)c1-c1ccc2[nH]c(=O)[nH]c2c1	< 0.3
Cc1cc(-c2c(Cl)cccc2OC(F)(F)F)cc2c1NC(=O)C2	0.5
N#CCc1cccc(Cl)c1-c1ccc2[nH]c(=O)[nH]c2c1	< 0.3
O=c1[nH]c2ccc(-c3c(Cl)cccc3Cl)cc2[nH]1	< 0.3

Q) So what does the record say about hepatic extraction ratio at 1 h, 1 µM for N#Cc1cccc(Cl)c1-c1ccc2[nH]c(=O)[nH]c2c1 ?
A) < 0.3

Q) So what does the record say about hepatic extraction ratio at 1 h, 1 µM for Cc1cc(-c2c(Cl)cncc2OC(F)F)cc2c1NC(=O)C2 ?
A) < 0.3

Q) So what does the record say about hepatic extraction ratio at 1 h, 1 µM for Cc1cccc(C)c1-c1ccc2[nH]c(=O)[nH]c2c1 ?
A) 0.3

Q) So what does the record say about hepatic extraction ratio at 1 h, 1 µM for O=c1[nH]c2ccc(-c3c(Cl)cncc3Cl)cc2[nH]1 ?
A) < 0.3

Q) So what does the record say about hepatic extraction ratio at 1 h, 1 µM for COc1cccc(Cl)c1-c1ccc2[nH]c(=O)[nH]c2c1 ?
A) 0.3
